Target: hERG K+ channel (Homo sapiens, UniProt Q12809)
Construct: expressed in transfected cells; host or cells: CHO (Chinese hamster ovary) cells, CHOhERG
Sequence (Q12809 whole entry): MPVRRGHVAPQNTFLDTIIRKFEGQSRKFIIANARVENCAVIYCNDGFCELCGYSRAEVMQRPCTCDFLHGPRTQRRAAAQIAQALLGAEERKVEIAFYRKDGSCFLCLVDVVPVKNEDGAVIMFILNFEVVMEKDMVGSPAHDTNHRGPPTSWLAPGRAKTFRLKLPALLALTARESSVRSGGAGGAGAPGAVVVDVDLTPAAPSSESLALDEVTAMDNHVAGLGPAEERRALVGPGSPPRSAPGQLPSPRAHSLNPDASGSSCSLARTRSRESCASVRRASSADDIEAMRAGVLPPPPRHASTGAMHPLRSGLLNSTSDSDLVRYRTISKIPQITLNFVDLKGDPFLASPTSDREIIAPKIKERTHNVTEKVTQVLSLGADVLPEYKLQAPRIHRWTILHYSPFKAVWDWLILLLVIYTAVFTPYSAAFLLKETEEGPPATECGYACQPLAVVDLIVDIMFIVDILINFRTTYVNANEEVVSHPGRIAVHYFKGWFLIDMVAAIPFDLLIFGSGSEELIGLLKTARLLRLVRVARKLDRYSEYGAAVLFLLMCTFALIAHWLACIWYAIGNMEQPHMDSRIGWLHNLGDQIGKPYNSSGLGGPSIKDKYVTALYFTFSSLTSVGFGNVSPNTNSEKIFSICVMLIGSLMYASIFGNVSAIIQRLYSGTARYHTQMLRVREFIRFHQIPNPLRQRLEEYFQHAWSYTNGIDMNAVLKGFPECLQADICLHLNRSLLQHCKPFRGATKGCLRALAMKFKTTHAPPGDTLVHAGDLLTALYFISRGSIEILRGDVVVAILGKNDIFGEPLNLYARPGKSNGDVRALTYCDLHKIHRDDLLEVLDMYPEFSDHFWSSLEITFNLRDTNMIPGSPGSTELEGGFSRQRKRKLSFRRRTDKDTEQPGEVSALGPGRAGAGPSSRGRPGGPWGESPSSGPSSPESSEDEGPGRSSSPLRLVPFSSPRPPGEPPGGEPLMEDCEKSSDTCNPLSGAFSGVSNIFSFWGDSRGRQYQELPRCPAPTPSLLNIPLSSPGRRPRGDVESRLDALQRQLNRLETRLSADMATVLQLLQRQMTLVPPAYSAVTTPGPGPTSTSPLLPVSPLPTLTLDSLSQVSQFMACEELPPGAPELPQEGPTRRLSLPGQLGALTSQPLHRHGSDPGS
Experiment: hERG channel inhibition assay
Format: cell-based
Details: human, CHO cells stably expressing hERG, patch-clamp (voltage-clamp, whole-cell)
Experimental: hERG Channel Inhibition Assay The hERG K^+ channels were cloned in humans and stably expressed in a CHO (Chinese hamster ovary) cell line. CHOhERG cells were used for patch-clamp (voltage-clamp, whole-cell) experiments. […] After the cells were stabilized for a few minutes, the amplitude and kinetics of IKhERG were recorded at a stimulation frequency of 0.1 Hz (6 bpm). […]
Measurement Name: IC20

Asked: So what does the record say about IC20 for C[C@@H]1CN(c2ccc(C#N)c3ncccc23)C[C@@H]2c3ccc(N4CC5(CNC5)C4)cc3CN12 [Example 36] ?
Given back: > 10 µM

Asked: So what does the record say about IC20 for C[C@@H]1CN(c2ccc(C#N)c3ncccc23)C[C@@H]2c3ccc(N4C[C@H]5CNCCN5C4=O)cc3CN12 [Example 72] ?
Given back: > 10 µM

Asked: So what does the record say about IC20 for C[C@@H]1CN(c2ccc(C#N)c3ncccc23)C[C@@H]2c3ccc(N4CCNCC(O)C4)cc3CN12 (stereo partly shown) [Example 15] ?
Given back: > 10 µM

Asked: So what does the record say about IC20 for C[C@@H]1CN(c2ccc(C#N)c3ncccc23)C[C@@H]2c3ccc(N4CC5CNCC(C4)O5)cc3CN12 [Example 14] ?
Given back: > 10 µM

Asked: So what does the record say about IC20 for C[C@@H]1CN(c2ccc(C#N)c3ncccc23)C[C@@H]2c3ccc(NCCN4CC[C@H](O)C4)cc3CN12 [Example 68] ?
Given back: 5.6 µM

Asked: So what does the record say about IC20 for CO[C@@H]1CN(c2ccc3c(c2)CN2[C@H](C)CN(c4ccc(C#N)n5nccc45)C[C@H]32)C[C@H]1N [Example 94] ?
Given back: > 10 µM

Asked: So what does the record say about IC20 for C[C@@H]1CN(c2ccc(C#N)c3ncccc23)C[C@@H]2c3ccc(N4CC5(CNCCO5)C4)cc3CN12 [Example 35] ?
Given back: > 10 µM

###

Biological target: human TLR9 (Homo sapiens, UniProt Q9NR96)
Sequence (Q9NR96 26-1032): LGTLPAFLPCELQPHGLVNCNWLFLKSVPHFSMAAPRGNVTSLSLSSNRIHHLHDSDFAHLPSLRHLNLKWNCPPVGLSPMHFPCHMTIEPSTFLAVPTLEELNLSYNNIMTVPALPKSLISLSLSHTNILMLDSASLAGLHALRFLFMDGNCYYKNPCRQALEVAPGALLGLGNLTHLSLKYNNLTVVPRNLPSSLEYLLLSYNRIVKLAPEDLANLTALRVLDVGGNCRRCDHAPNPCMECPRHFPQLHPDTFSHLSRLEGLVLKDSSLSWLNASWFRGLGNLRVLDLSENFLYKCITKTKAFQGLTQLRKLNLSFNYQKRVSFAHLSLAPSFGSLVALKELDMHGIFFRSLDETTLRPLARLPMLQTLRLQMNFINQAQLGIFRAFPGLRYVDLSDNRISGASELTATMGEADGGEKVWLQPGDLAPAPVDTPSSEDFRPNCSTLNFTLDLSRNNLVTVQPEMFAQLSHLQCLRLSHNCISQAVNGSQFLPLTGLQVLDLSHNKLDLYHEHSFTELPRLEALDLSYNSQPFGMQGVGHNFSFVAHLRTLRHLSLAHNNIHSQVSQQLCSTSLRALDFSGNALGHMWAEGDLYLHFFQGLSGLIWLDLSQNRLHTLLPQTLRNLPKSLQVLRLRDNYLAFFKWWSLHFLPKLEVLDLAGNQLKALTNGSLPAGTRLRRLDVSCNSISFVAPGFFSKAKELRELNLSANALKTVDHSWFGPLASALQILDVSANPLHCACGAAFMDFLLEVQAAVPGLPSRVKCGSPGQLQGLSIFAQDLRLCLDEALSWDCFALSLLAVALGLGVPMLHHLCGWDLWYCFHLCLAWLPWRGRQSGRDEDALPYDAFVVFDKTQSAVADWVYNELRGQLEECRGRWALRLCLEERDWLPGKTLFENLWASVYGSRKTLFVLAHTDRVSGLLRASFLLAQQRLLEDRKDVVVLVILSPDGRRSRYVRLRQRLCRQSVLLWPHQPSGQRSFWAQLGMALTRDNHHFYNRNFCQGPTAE
Assay: HEK293-Blue-hTLR-9 cells assay
Conditions: HEK293-Blue-hTLR9 cells, ODN2006 stimulation, 20 hrs, SEAP reporter; read-out: HEK/hTLR9 IC50
Would you mind telling me the reported IC50 of each entry?

Asked: So what does the record say about IC50 for COC12CNCC1CN(c1ccc3c(c1)CN1[C@H](C)CN(c4ccc(C#N)c5ncccc45)C[C@H]31)C2 (stereo partly shown) [Example 41] ?
Given back: < 31.8 nM

Asked: So what does the record say about IC50 for C[C@@H]1CN(c2ccc(C#N)c3ncccc23)C[C@@H]2c3ccc(N4CCNC[C@@](C)(O)C4)cc3CN12 [Example 55B] ?
Given back: 156 nM

Asked: So what does the record say about IC50 for C[C@@H]1CN(c2ccc(C#N)c3ncccc23)C[C@@H]2c3ccc(N[C@H]4CNC[C@H]4F)cc3CN12 [Example 30] ?
Given back: 96.6 nM

Asked: So what does the record say about IC50 for Cc1ccc(N2C[C@@H](C)N3Cc4cc(N[C@H]5CNC[C@H]5F)ccc4[C@H]3C2)c2nccnc12 [Example 76] ?
Given back: 150 nM

Asked: So what does the record say about IC50 for N#Cc1ccc(N2CCN3Cc4cc(N5CCNCC5)ccc4C3C2)c2scnc12 (stereo not shown) [Example 4] ?
Given back: 101 nM

Asked: So what does the record say about IC50 for C[C@@H]1CN(c2ccc(C#N)c3ncccc23)C[C@@H]2c3ccc(NC4CNC4)cc3CN12 [Example 28] ?
Given back: 83.4 nM

Asked: So what does the record say about IC50 for C[C@@H]1CN(c2ccc(C#N)n3nccc23)C[C@@H]2c3ccc(N4C[C@@H](N)[C@H](O)C4)cc3CN12 [Example 110] ?
Given back: 53 nM

Asked: So what does the record say about IC50 for C[C@@H]1CN(c2ccc(C#N)n3ncc(F)c23)C[C@@H]2c3ccc(N4C[C@H](N)[C@@](C)(O)C4)cc3CN12 [Example 112] ?
Given back: 227 nM

Asked: So what does the record say about IC50 for CO[C@H]1CCN(c2ccc3c(c2)CN2[C@H](C)CN(c4ccc(C#N)n5nccc45)C[C@H]32)C[C@H]1N [Example 106] ?
Given back: 135 nM

Asked: So what does the record say about IC50 for C[C@@H]1CN(c2ccc(C#N)c3ncccc23)C[C@@H]2c3ccc(N4CC5(CCN5)C4)cc3CN12 [Example 37] ?
Given back: 103 nM

Asked: So what does the record say about IC50 for C[C@@H]1CN(c2ccc(C#N)c3ncccc23)C[C@@H]2c3cc(F)c(N4CC5(CNC5)C4)cc3CN12 [Example 84] ?
Given back: 186 nM

Asked: So what does the record say about IC50 for CO[C@@H]1CNC[C@H]1Nc1cc2c(cc1C)[C@H]1CN(c3ccc(C#N)c4ncccc34)C[C@@H](C)N1C2 [Example 63] ?
Given back: 72.7 nM

Asked: So what does the record say about IC50 for C[C@@H]1CN(c2ccc(C#N)c3ncccc23)C[C@@H]2c3ccc(N4CC5CNCC(C4)O5)cc3CN12 [Example 14] ?
Given back: 81.1 nM

Asked: So what does the record say about IC50 for C[C@@H]1CN(c2ccc(C#N)c3ncsc23)C[C@@H]2c3ccc(N4CCNCC4)cc3CN12 [Example 6] ?
Given back: 156 nM

Asked: So what does the record say about IC50 for CO[C@H]1CN(c2ccc3c(c2)CN2[C@H](C)CN(c4ccc(C#N)n5nccc45)C[C@H]32)C[C@@H]1N [Example 95] ?
Given back: 215 nM

Asked: So what does the record say about IC50 for C[C@@H]1CN(c2ccc(C(F)(F)F)c3nccnc23)C[C@@H]2c3ccc(N[C@H]4CNC[C@H]4F)cc3CN12 [Example 77] ?
Given back: 141 nM

Asked: So what does the record say about IC50 for C[C@@H]1CN(c2ccc(C#N)c3ncccc23)C[C@@H]2c3ccc(N4C[C@H]5CNCCN5C4=O)cc3CN12 [Example 72] ?
Given back: 108 nM

Asked: So what does the record say about IC50 for N#Cc1ccc(N2CCN3Cc4cc(N5CCNCC5)ccc4C3C2)c2cccnc12 (stereo not shown) [Example 3] ?
Given back: 87.7 nM

Asked: So what does the record say about IC50 for C[C@@H]1CN(c2ccc(C#N)c3ncccc23)C[C@@H]2c3ccc(N4CC(C)(N)C4)cc3CN12 [Example 39] ?
Given back: 123 nM

Asked: So what does the record say about IC50 for CO[C@H]1CNC[C@@H]1Nc1ccc2c(c1)CN1[C@H](C)CN(c3ccc(C#N)c4ncccc34)C[C@H]21 [Example 62] ?
Given back: 84.5 nM

Asked: So what does the record say about IC50 for C[C@@H]1CN(c2ccc(C#N)n3nccc23)C[C@@H]2c3ccc(N4CC[C@@](C)(N)C4)cc3CN12 [Example 103] ?
Given back: 142 nM

Asked: So what does the record say about IC50 for C[C@@H]1CN(c2ccc(C#N)c3ncccc23)C[C@@H]2c3ccc(N4C[C@@H](N)[C@@H](F)C4)cc3CN12 [Example 47] ?
Given back: 146 nM

Asked: So what does the record say about IC50 for C[C@@H]1CN(c2ccc(C#N)c3ncccc23)C[C@@H]2c3ccc(N4CC[C@@H](N)C4)cc3CN12 [Example 20] ?
Given back: 86.9 nM

Asked: So what does the record say about IC50 for C[C@@H]1CN(c2ccc(C#N)c3ncccc23)C[C@@H]2c3ccc(N[C@@H]4CNC[C@@H]4F)cc3CN12 [Example 32] ?
Given back: 89.2 nM

Asked: So what does the record say about IC50 for C[C@@H]1CN(c2ccc(C#N)n3nccc23)C[C@@H]2c3ccc(N4CC[C@@H](N)C4)cc3CN12 [Example 96] ?
Given back: 193 nM

Asked: So what does the record say about IC50 for C[C@@H]1CN(c2ccc(C#N)c3ncccc23)C[C@@H]2c3ccc(N4C[C@H]5NCCO[C@@H]5C4)cc3CN12 [Example 44] ?
Given back: 102 nM

Asked: So what does the record say about IC50 for CO[C@@H]1CN(c2ccc3c(c2)CN2[C@H](C)CN(c4ccc(C#N)n5nccc45)C[C@H]32)CC[C@@H]1N [Example 105] ?
Given back: 163 nM

Asked: So what does the record say about IC50 for CN[C@H]1CN(c2ccc3c(c2)CN2[C@H](C)CN(c4ccc(C#N)c5ncccc45)C[C@H]32)C[C@@H]1O [Example 42] ?
Given back: 65.4 nM

// data source = patent US12157746B2
